Values from the Human Domainome abundance scans (Beltran et al. 2025)

Give abundance fitness for every item shown.
B1: Syntaxin-binding protein 4, residues 493 to 538; numbered along this chain, Q6ZWJ1 (parent)
chain: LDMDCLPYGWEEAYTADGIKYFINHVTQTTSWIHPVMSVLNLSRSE

variants of: B1; experiment: abundance fitness (aPCA) (normalised: wild type 0, dead -1); higher = more abundant; growth selection in yeast, the domain comes from the species named; conditions: Homo sapiens

Solved entries:
| Mut | abundance fitness |
| --- | --- |
| W32E | -0.628 |
| P7N | -0.714 |
| T30K | -0.692 |
| Y8M | -0.292 |
| L42T | 0.048 |
| D4H | -0.835 |

List abundance fitness for every entry below, keeping the order given.
1. E11Q
2. D17P
3. I19P
4. E12M
5. F22Q
6. S38F
7. M3W

-0.4
-0.867
-0.761
-0.361
-0.823
-0.531
-0.692

List abundance fitness for every entry below, keeping the order given.
1. M37C
2. I23K
3. M3C
4. S45D
5. L6M

[0.056, -0.282, 0.117, -0.06, -0.692]

List abundance fitness for every entry below, keeping the order given.
1. T29L
2. S45T
3. G9H
4. I23V
5. K20L

[-0.969, -0.089, -0.86, 0.023, -0.794]

List abundance fitness for every entry below, keeping the order given.
1. I19F
2. Y21C
3. I19H
4. I19E
5. G9C
6. L1T

1. -0.352
2. -0.908
3. 0.293
4. 1.09
5. -0.892
6. -0.004
